Assay Summary: fission yeast growth modulation, primary screen, strain 972, OD600, 24 h, no modulator (AID 1090);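 further: basal condition with compound alone and no growth modifier present; test concentration not given here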
Conditions: S. pombe 972 growth, called active from +8 up or from −8 down
Activity calls are given as the source filed them.
Labels: 1 for active, -1 for inactive

Compound	Classification
COc1ccc(-c2cc3c(c(CCc4ccccc4)n2)[Si](C(C)C)(C(C)C)O[C@H]3c2ccccc2)cn1	-1
COCCCNC(=O)[C@@]1(CCC(=O)OC(C)(C)C)N=C(c2ccc(OCCCO)cc2)O[C@H]1c1ccccc1	-1
COc1ccc([Si](C)(C)[C@H]2[C@H](CC(=O)N3CCC[C@H]3CO)O[C@@]3(C(=O)N(Cc4cccc(N5CCCCC5=O)c4)c4ccccc43)[C@@H]2C)cc1	-1
COCCOC(=O)N1C(=O)[C@@]2(c3cc(C#CCC(C(=O)OC)C(=O)OC)ccc31)[C@H](c1ccc(O)cc1)N1[C@H](c3ccccc3)[C@H](c3ccccc3)OC(=O)[C@H]1[C@@H]2C(=O)N1CCc2cc(OC)c(OC)cc2C1	-1
CCCN1C(=O)[C@@]2(c3ccc([N+](=O)[O-])cc3)CC(=O)N(C3CCCCC3)[C@@H]2c2ccc(CO)cc21	-1
COC(=O)[C@@]1(Cc2ccc(F)cc2)[C@H]2c3cc(C(=O)N(C)C)n(CCF)c3C[C@H]2CN1C(=O)c1ccccc1	-1
CC[C@@H](O[Si](C#C[Si](C(C)C)(C(C)C)C(C)C)(C(C)C)C(C)C)c1cn([C@H](C)c2ccccc2)nn1	-1
CN(C)CCCCNC(=O)[C@H]1C[C@H]2C(=O)N[C@@H](CCCCN(C)C)C(=O)N2[C@H]1c1ccc(O)cc1	-1
CCCCN1CC=CC23O[C@@H]4C=CCCOC(=O)C4[C@H]2C(=O)N(CCO)[C@@H]3C1=O (stereo not given in full)	-1
CCCC1(C(=O)OC)C=C2C(=C(C(C)C)C(=O)C2C)CN1 (stereo not given)	-1
O=C(c1ccccc1)N1Cc2ccccc2C[C@@]2(N=C(c3ccc(OCCCO)cc3)O[C@H]2c2ccccc2)C1=O	1
O=C1c2ccccc2[C@](Cc2ccccc2I)(C(=O)NCCN2CCOCC2)[C@H](c2ccc(CO)cc2)N1Cc1ccccc1C(F)(F)F	-1
CCCCC(=C=CC[C@@H](O)c1ccccc1OCCO)C[C@@H](O)c1ccccn1	-1
COc1ccc(CCNC(=O)[C@@H]2c3ccccc3C(=O)N(C(C)C)[C@H]2c2ccc(CO)cc2)cc1	-1
O=C1OCC=C[C@H]2OC34C=CCN(Cn5nnc6ccccc65)C(=O)[C@H]3N(CCO)C(=O)[C@@H]4[C@@H]12 (stereo not given in full)	-1
